- TESTED_ON: T1, human CEA protein on the cell surface (human, UniProt P06731 35-685)
- T1 construct: whole, on cells; also called CEACAM-5; CD66e
- T1 sequence (looked up): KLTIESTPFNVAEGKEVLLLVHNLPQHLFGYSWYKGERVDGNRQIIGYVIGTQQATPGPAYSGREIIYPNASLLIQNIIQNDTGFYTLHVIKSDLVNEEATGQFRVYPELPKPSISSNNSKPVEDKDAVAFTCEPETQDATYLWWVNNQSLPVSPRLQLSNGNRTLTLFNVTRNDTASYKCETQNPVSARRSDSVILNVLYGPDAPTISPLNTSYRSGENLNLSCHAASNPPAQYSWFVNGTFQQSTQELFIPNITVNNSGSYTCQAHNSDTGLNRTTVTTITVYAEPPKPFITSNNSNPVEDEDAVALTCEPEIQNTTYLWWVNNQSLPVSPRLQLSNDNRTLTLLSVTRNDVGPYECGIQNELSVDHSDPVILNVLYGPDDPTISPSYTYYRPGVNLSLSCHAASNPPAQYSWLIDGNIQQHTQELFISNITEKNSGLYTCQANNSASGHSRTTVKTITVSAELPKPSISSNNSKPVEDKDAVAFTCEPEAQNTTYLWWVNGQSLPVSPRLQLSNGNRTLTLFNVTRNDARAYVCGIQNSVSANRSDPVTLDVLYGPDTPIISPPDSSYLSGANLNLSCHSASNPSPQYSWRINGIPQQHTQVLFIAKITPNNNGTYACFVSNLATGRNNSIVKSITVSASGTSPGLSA
- PROTOCOL_DETAILS: FACS, MKN45 cells
READOUT: EC50 (nM)
Please reply with the bare figure in nM and do not write the unit itself.

The examples below pair each entry with its known result.
Labetuzumab (antibody, human IgG1, kappa, V domains shown, Positive control antibody; also called Lmab; antibody in Lmab-CL2A-SN38) VH: EVQLVESGGGVVQPGRSLRLSCSASGFDFTTYWMSWVRQAPGKGLEWIGEIHPDSSTINYAPSLKDRFTISRDNAKNTLFLQMDSLRPEDTGVYFCASLYFGFPWFAYWGQGTPVTVSS VL: DIQLTQSPSSLSASVGDRVTITCKASQDVGTSVAWYQQKPGKAPKLLIYWTSTRHTGVPSRFSGSGSGTDFTFTISSLQPEDIATYYCQQYSLYRSFGQGTKVEIKR    2.45
Hu47-14 (antibody, human IgG1, kappa, V domains shown, Humanized IgG1/kappa; h47VH4 + h47VL2) VH: EVQLVQSGSELKKPGASVKVSCKASGYTFTTYGMSWVKQAPGQGLKWMGWINTYSGVPTYASDFKGRFVFSLDTSVSTAYLQISSLKAEDTAVYYCARRGNYGRWDFDVWGQGTTVTVSS VL: EIVLTQSPDFQSVTPKEKVTITCSVSSTISSSNLHWYQQKPDQSPKPLIYGTSNLASGVPSRFSGSGSGTDYTLTINSLEAEDAATYYCQQWSIYPLTFGQGTKLEIKR    4.19

Next up:
// Hu63-13 (antibody, human IgG1, kappa, V domains shown, Humanized IgG1/kappa; h63VH5 + h63VL1) VH: EVQLVQSGAEVKKPGASVKVSCKASGYTFTDFYMNWVRQAPGQGLEWMGDIFPKSGNTDYNRKFKDRVTMTRDTSTSTVYMELSSLRSEDTAVYYCARSGYGNYVFDYWGQGTLVTVSS VL: DIQMTQSPSSLSASVGDRVTITCRTSQDINIYLNWYQQKPGKAPKLLIYYRSGLLSGVPSRFSGSGSGTDFTLTISSLQPEDFATYYCQQGNTLPPTFGGGTKVEIKR : EC50 value = 2.93
